For each entry below, report its No. of survivors value.
Test system: Mus musculus
Run description: Number of mice surviving due to reduction in kidney fungal burden after 10 days against Aspergillus fumigatus on intravenous infection to mice
Format: functional
The answer should be written as a number, with no unit following it.

Look up No. of survivors for this compound: CCC(C)n1ncn(-c2ccc(N3CCN(c4ccc(OCC5COC(Cn6cncn6)(c6ccc(Cl)cc6Cl)O5)cc4)CC3)cc2)c1=O (stereo not given)
4

Look up No. of survivors for this compound: CC(c1ncncc1F)C(O)(Cn1cncn1)c1ccc(F)cc1F (stereo not given)
5

Look up No. of survivors for this compound: "C[C@@H](c1ccncc1)[C@](O)(Cn1cncn1)c1ccc(F)cc1F"
4

Look up No. of survivors for this compound: CC(c1ccncc1F)C(O)(Cn1cncn1)c1ccc(F)cc1F (stereo not given)
5

Look up No. of survivors for this compound: CC(c1ccncn1)C(O)(Cn1cncn1)c1ccc(F)cc1F (stereo not given)
3
